# Test system: NCI-H23 lung
# Experimental protocol: NCI tumour cell line growth inhibition, 48 h
Measurement label: GI50

Check out these entries, answers already filled in.
Compound	GI50
CC(=O)OC1CCC2(C)C(CCC3C4CC=C(C(C)=O)C4(C)OC(=O)CC32)C1 (centres undefined)	2.9 µM
ICCC(c1ccccc1)(c1ccccc1)c1ccccc1	13.4 µM
CC[C@H](C)[C@H](NC(=O)Nc1ccccc1)C(=O)N(C)[C@H](C[C@@H](OC(C)=O)c1nc(C(=O)N[C@@H](Cc2ccccc2)C[C@H](C)C(=O)OC)cs1)C(C)C	5.8 µM
Fc1ccc(-c2nnc3sc(COc4ccccc4Cl)nn23)cc1Cl	33.4 µM
COc1cccc(-n2ncc3c(N/N=C/c4ccc(S(C)(=O)=O)cc4)ncnc32)c1	11.9 µM

Report GI50 for COc1ccc2[nH]c(=O)c(/C=C/C(=O)/C=C/c3ccc(O)c(OC)c3)cc2c1 please.
2.04 µM

Also check O=C(O)C[O][Sb][O]CC(=O)O
> 100 µM

Moving on to Nc1c(C(=O)c2cccc(C#CCN3CCOCC3)c2)cnn1-c1ccc(F)cc1
> 25 µM

For CN1CCN(Cc2ccc(NC(=O)c3nc4ccc5[nH]ncc5c4c4c3CCC4)cc2C(F)(F)F)CC1 then?
1.07 µM

----------
As shown below, each of these molecules has a reported TGI value.
# Tested on: U251 CNS
# Experimental protocol: NCI tumour cell line growth inhibition, 48 h

Some solved entries appear below for comparison.
Molecule	Assay system	TGI
Cc1cc(S(=O)(=O)n2ccnc2Oc2ccccc2)c(SSc2cc(Cl)c(C)cc2S(=O)(=O)n2ccnc2Oc2ccccc2)cc1Cl	U251 CNS	> 100 µM
C/C=C/C(C#N)(Cc1ccccc1)OP1(=O)OC(c2ccccc2)C(C)N1C (stereo unspecified)	U251 CNS	> 100 µM
CC1(C)CC(OCCCC[P+](c2ccccc2)(c2ccccc2)c2ccccc2)CC(C)(C)N1O	U251 CNS	1.54 µM
COC(=O)c1ccc2c(c1)C(=O)c1c-2n(CCCN)c(=O)c2cc([N+](=O)[O-])ccc12	U251 CNS	0.368 µM
CCOC(=O)C(Cc1ccccc1)NC(=O)OC(C)(C)C (stereo unspecified)	U251 CNS	> 100 µM

Name the reported TGI value associated with the molecule Cc1nc(-c2cc3c(ccc4ccccc43)oc2=O)cc2c1c(=O)oc1ccc3ccccc3c12
> 100 µM

Do the same for N#Cc1cccc(/C=C(/C(=O)c2ccccc2)c2ccccc2)c1 please
12.5 µM

Field entry: CC1(O)CC2(O)C=CC3=C(C(=O)c4cccc(O)c4C3=O)C2(O)C(=O)C1O (stereo unspecified)
9.81 µM

Now consider CC#Cc1cc2c(cc1O)CC[C@@H]1[C@@H]2CC[C@]2(C)[C@@H](O)CC[C@@H]12 .
7.81 µM

Let us now turn to CCN(CC)CCCOc1cc(O)c2c(=O)cc(-c3ccccc3)oc2c1
22.4 µM

----------
# Tested on: NCI/ADR-RES ovarian
# Experimental protocol: NCI tumour cell line growth inhibition, 48 h
Measurement label: TGI

Illustrative cases are given below, each with its answer.
Compound	TGI
COc1ccc2[nH]c(=O)c(/C=C/C(=O)/C=C/c3ccc(O)c(OC)c3)cc2c1	> 100 µM
CC1(O)CC23CC1CCC2(C)C12CCCC(C)(C(=O)O1)C2CC3O (stereo unspecified)	> 100 µM
CCN(C(=O)CCl)C(C)(C)C(SSSC(c1ccc(Cl)cc1)C(C)(C)N(CC)C(=O)CCl)c1ccc(Cl)cc1 (stereo unspecified)	24 µM
CCN1C(=O)c2ccccc2C1(O)c1ccc(Cl)cc1 (stereo unspecified)	> 100 µM

Which TGI value belongs to CC(C)Oc1ccc(CNC2=NCCO2)c2ccccc12 ?
31.9 µM

Next record, please: NNc1ccccc1Cl
> 100 µM

The measured values listed here are drawn from PubChem BioAssay (NCI).
